# Experimental Target: T1, UNK ZnF1-3 (human, UniProt Q9C0B0 31-174)
# T1 sequence: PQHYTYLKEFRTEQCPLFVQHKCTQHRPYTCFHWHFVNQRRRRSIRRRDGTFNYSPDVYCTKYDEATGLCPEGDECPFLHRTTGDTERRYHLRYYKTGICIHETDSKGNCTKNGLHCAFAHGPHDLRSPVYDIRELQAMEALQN
# Method Summary: nsRBNS (natural sequence RNA bind-n-seq); RBNS binding buffer (assumed for nsRBNS): 25 mM Tris pH 7.5, 150 mM KCl, 3 mM MgCl2, 0.01% Triton X-100, 500 ug/ml BSA, 20 U/ml SUPERase-In, 4 C; UNK is unkempt and MSI1 is Musashi-1; names of the RNAs are library labels; protein concentration not given here; high values mean tight binding
The full ranking holds about 24,000 sequences; the median of “enrichment r” is about 0.99, and the highest 2% start at about 3.7. For the sample, the highest values were picked, then their nearest neighbours and some sequences at random.
Reported binding signal values follow for various binders
Form entry: enter the amount, then its unit.

Study these solved cases before continuing.
# Binder, Measured Value
records = [
    ("106713800_106713920_1116_CDS_ENSMUSG00000018363_ENSMUST00000103067|mouse|control|control (ssRNA) RNA: GGGAGUUCUACAGUCCGACGAUCCCUGCUCAUGUAAUUUCUAUGUCGCUGGGACCUGACUCUUCUCUCUGCUAGUCUGGGGUCUGAAGAAUGUCCACACGUUGCACCAUUUGUUCCAGUAAUUGGAGUAUUCUCAUCCACAAACAACAGAGGAUUGAGCAUCA", "0.982 enrichment R"),
    ("chr1:157160411:157160412:-_ENSMUSG00000026469_ENSMUST00000027741|mus_mus|motif|central (ssRNA) RNA: GGGAGUUCUACAGUCCGACGAUCGAAUUCAAUCAGAAGAAAGCCACCCCGAUAGAUUCUUAUCAAGGGCCAUACAGUUCGGUCUGUUUCAAGUUUAAAUACAGCUGCAAACACAAGGGUAAUAUUCAGCACAAUGAAUAUUCCCAACAGAGGAUUGAGCAUCA", "0.944 enrichment R"),
]

Which binding signal is listed for chr16:68260615:68260616:+_ENSG00000072736_ENST00000346183|hu_hu|FALSE|FALSE (ssRNA) RNA: GGGAGUUCUACAGUCCGACGAUCGAAACAAGAGAGCCUGCUGCAUUCACACUCAAAGCACCCAUCAUAUAAAAGUAUCCUAGUUAAAUAUAAAAAGCAAAGUUCAUUUCCCCAAAGCUCAAACAGCCUAUGCUGCUCCUGUUCCAACAGAGGAUUGAGCAUCA ?
4.02 enrichment R
